# System tested: HLA DRB1*09:01 (Homo sapiens, UniProt P01903+P01911, A100R/A103E/D57H/D86V/F55Y/F60I/F76Y/I96F/K127E/L162R/M171V/P40D/Q125H/Q99R/R33Q/R42F/S133A/S66N/T210M/V115G/W38K/Y107V/Y59G/Y89S)
# Run description: biochemical
# Type: binding
# Assay setup: binder threshold 1,000 nM, read-out: In vitro (IC50 nM) DRB1*09:01
IC50 for assorted compounds
A bare number is not enough; add the unit after it.

CC(C)C[C@H](NC(=O)[C@H](C)NC(=O)[C@H](CC(=O)O)NC(=O)[C@H](CCC(N)=O)NC(=O)[C@H](CC(=O)O)NC(=O)[C@H](CCC(=O)O)NC(=O)[C@@H](N)Cc1ccc(O)cc1)C(=O)N[C@@H](Cc1ccccc1)C(=O)N[C@@H](C)C(=O)N[C@@H](Cc1ccc(O)cc1)C(=O)N[C@H](C(=O)N[C@@H](CCCCN)C(=O)N[C@@H](CCCNC(=N)N)C(=O)N[C@@H](CC(N)=O)C(=O)N[C@H](C(=O)O)C(C)C)[C@@H](C)O [Peptide 105] = 8570 nM
CC[C@H](C)[C@H](NC(=O)[C@H](CCSC)NC(=O)[C@H](CCSC)NC(=O)[C@H](CO)NC(=O)[C@H](Cc1ccccc1)NC(=O)[C@H](Cc1c[nH]cn1)NC(=O)[C@H](CCCCN)NC(=O)[C@H](CCCNC(=N)N)NC(=O)[C@H](CC(C)C)NC(=O)[C@H](Cc1ccc(O)cc1)NC(=O)[C@H](C)NC(=O)[C@@H](N)Cc1ccc(O)cc1)C(=O)N[C@@H](CC(C)C)C(=O)N[C@@H](CO)C(=O)N[C@@H](CC(=O)O)C(=O)O [Peptide 150] = 4.8 nM

(Q) Item under review: CC[C@H](C)[C@H](NC(=O)[C@@H](NC(=O)[C@@H]1CCCN1C(=O)[C@@H](NC(=O)[C@@H](NC(=O)[C@H](CC(N)=O)NC(=O)[C@H](CCCNC(=N)N)NC(=O)[C@H](CCCCN)NC(=O)[C@@H](NC(=O)[C@H](Cc1ccc(O)cc1)NC(=O)[C@H](C)NC(=O)[C@H](Cc1ccccc1)NC(=O)[C@H](CC(C)C)NC(=O)[C@H](C)N)[C@@H](C)O)C(C)C)[C@@H](C)CC)[C@@H](C)O)C(=O)N[C@H](C(=O)O)[C@@H](C)O . Reported IC50?
(A) 52 nM

(Q) Can you check CC[C@H](C)[C@H](NC(=O)[C@@H]1CCCN1C(=O)[C@H](CCSC)NC(=O)[C@@H](N)CC(C)C)C(=O)N[C@@H](CC(C)C)C(=O)N[C@H](C(=O)N[C@@H](CC(C)C)C(=O)N[C@H](C(=O)N[C@@H](CCCNC(=N)N)C(=O)N[C@@H](C)C(=O)N[C@@H](CC(C)C)C(=O)N[C@H](C(=O)N[C@@H](C)C(=O)N[C@@H](CCC(=O)O)C(=O)N[C@@H](CO)C(=O)O)[C@@H](C)O)[C@@H](C)O)[C@@H](C)O next?
(A) 123 nM
